assay: Cytotoxicity against human TZM-bl cells by CytoTox-Glo assay; format: cell-based
endpointLabel: CC50 (µM)
Give the value, in units of µM, as a plain number.

Query block: Bench note: what CC50 did COc1cc2c(c3oc4cccc(C)c4c(=O)c13)[C@@H](OC(=O)C13CCC(C)(C(=O)O1)C3(C)C)[C@@H](OC(=O)C13CCC(C)(C(=O)O1)C3(C)C)C(C)(C)O2 (stereo partly drawn) show?
Result block: 11.6

Now let's try a different one.
Query block: Bench note: what CC50 did COc1cc2c(c3oc4ccc(Br)cc4c(=O)c13)[C@@H](OC(=O)C13CCC(C)(C(=O)O1)C3(C)C)[C@@H](OC(=O)C13CCC(C)(C(=O)O1)C3(C)C)C(C)(C)O2 (stereo partly drawn) show?
Result block: 9.23
